procedureText: melting temperature; fluorescence melt of hairpins on a sequencing array, two-state fit, raised by 9.35 °C to match UV melts
testSettings: sodium 0.088 M
Simple rule here: Tm less than 40 °C is Met, otherwise Not met.

Field: below-cutoff. Rule: recorded Tm strictly less than 40 °C. Subject: GCCAATGGAAACATTGGC (((((((....)))))))
Not met

Input GAATGCCGAAAGGCCTTC (((.(((....))).))) ; condition: Tm strictly below 40 °C. Does it hold?
Not met

For GACATAGGAAACTACGTC (((.(((....))).))) , is the recorded Tm below the cut-off of 40 °C?
Met

Say whether its Tm is strictly beneath 40 °C. Entry: GGTCAGGCGAAAGCCACC (((..(((....))))))
Met

Threshold test, Tm < 40 °C: GTTGGTGGAAACACTGAC ((..(((....)))..))
Met

State whether 40 °C exceeds Tm recorded for GGGAATGGAAACGTTTCC ((.((.(....).)).)) .
Met

----------
procedureText: melting temperature; fluorescence melt of hairpins on a sequencing array, two-state fit, raised by 9.35 °C to match UV melts
testSettings: sodium 0.088 M
// Tm lookup, one value per entry

Supply Tm value. Item: GATCAAGGTATTGATC ((((((....))))))
48.7 °C

Give the reported value of Tm for this record: GATCGACCGTTCGATC ((((((....))))))
50.7 °C

Specify reported Tm for the sequence shown: GAGAAACGAAAGTTGCTC (((.(((....))).)))
48.8 °C

----------
procedureText: melting temperature; fluorescence melt of hairpins on a sequencing array, two-state fit, raised by 9.35 °C to match UV melts
testSettings: sodium 0.088 M
Tm overview
Reply with just the number (in °C).

>  <chainSequence>
GATCATTATAATGATC ((((((....))))))

>  <readoutKind>
Tm

>  <u>
°C

>  <recordedMeasurement>
49.7

$$$$
>  <chainSequence>
GCTCCCGGAAACGAGAGC ((((.((....)).))))

>  <readoutKind>
Tm

>  <u>
°C

>  <recordedMeasurement>
49.2

$$$$
>  <chainSequence>
GATCTTGTAAAGATC ((((((...))))))

>  <readoutKind>
Tm

>  <u>
°C

>  <recordedMeasurement>
53.8

$$$$
>  <chainSequence>
GCCAAGCGAAAGCTGAGC ((..(((....)))..))

>  <readoutKind>
Tm

>  <u>
°C

>  <recordedMeasurement>
47.7

$$$$
>  <chainSequence>
GCGAAACCGAAAGGTCGC (((..(((....))))))

>  <readoutKind>
Tm

>  <u>
°C

>  <recordedMeasurement>
54.4

$$$$
>  <chainSequence>
GACCAGGGAAACTTGGTC (((((.(....).)))))

>  <readoutKind>
Tm

>  <u>
°C

>  <recordedMeasurement>
47.8

$$$$

Provide measured Tm value, entry: GAGTATGGAAACATACTC (((((((....)))))))
54.4

Return value of Tm for input GGTTTCGAAAGAATAACC ((((((....)))..))) , no commentary.
31.5

----------
procedureText: folding enthalpy; higher = less favourable; fluorescence melt of hairpins on a sequencing array, two-state fit
testSettings: sodium 0.088 M
readoutKind: folding enthalpy (kcal/mol)
Kindly provide the numeric value in kcal/mol only, without the unit symbol.

Use the examples below as a reference point.
>  <chainSequence>
GAATACGAAAGTAATTC ((((((....))).)))

>  <u>
kcal/mol

>  <folding enthalpy>
-13.6

$$$$
>  <chainSequence>
CGTGGGCGGAAACGCACG (((..(((....))))))

>  <u>
kcal/mol

>  <folding enthalpy>
-13.4

$$$$
>  <chainSequence>
GAGTCGGGAAACCGGTTC ((..(((....)))..))

>  <u>
kcal/mol

>  <folding enthalpy>
-15.6

$$$$
>  <chainSequence>
GGAGTTGGAAACAACTCC (((((((....)))))))

>  <u>
kcal/mol

>  <folding enthalpy>
-45.3

$$$$
>  <chainSequence>
GCATAGCGAAAGCTGCGC ((..(((....)))..))

>  <u>
kcal/mol

>  <folding enthalpy>
-21

$$$$
>  <chainSequence>
GTTTGTGCGAAAGCAAAC (((..(((....))))))

>  <u>
kcal/mol

>  <folding enthalpy>
-18.2

$$$$
>  <chainSequence>
GTGGTGGCGAAAGCCCAC (((..(((....))))))

>  <u>
kcal/mol

>  <folding enthalpy>
-14.8

$$$$
>  <chainSequence>
GTCGGACGAAAGTCGGAC (((.(((....))).)))

>  <u>
kcal/mol

>  <folding enthalpy>
-32.3

$$$$
>  <chainSequence>
GAGGGAGGAAACTCCCTC (((((((....)))))))

>  <u>
kcal/mol

>  <folding enthalpy>
-41.1

$$$$
>  <chainSequence>
GTGCACGAAAGTGCTCAC ((((((....)))..)))

>  <u>
kcal/mol

>  <folding enthalpy>
-7.03

$$$$

Using known records, supply folding enthalpy for GCGCTGCGAAAGCTGTGC ((.(.((....)).).))
-34.4

Return value of folding enthalpy for input GCACGCGAAAGCGATTGC ((((((....)))..))) , no commentary.
-14.2

Hello, please tell me recorded folding enthalpy for this one: GATCACGATCGTGATC ((((((....))))))
-47.4

Identify measured folding enthalpy associated with GTCCTACGAAAGTATGAC (((.(((....))).)))
-32.3

For GCGCTGGGAAACCGGTGC ((.(.((....)).).)) , write its folding enthalpy.
-42.6

Name the recorded folding enthalpy of the sequence listed here: GTACCAGGAAACTGGTGC (.(((((....))))).)
-43

Annotate the sequence CACCGGAAACGGTG (((((....))))) with its measured folding enthalpy.
-30

Quote folding enthalpy reported for GCATATCGAAAGATTTGC (((.(((....))).))) please.
-37

Supply measured folding enthalpy of GTGTGCGAAAGCAGACAC ((((((....)))..))) in your reply.
-19.1

Identify measured folding enthalpy associated with GCTTTGCGAAAGCATGGC ((..(((....)))..))
-16.7

Give a short answer stating reported folding enthalpy for GGTCTGGGAAACCGGATC (.((.((....)).)).) .
-23.2

Give a short answer stating reported folding enthalpy for GAAGACGGAAACGCCTTC ((((.((....)).)))) .
-26.5

Supply recorded folding enthalpy for GGTGAACGAAAGTTGACC (((.(((....))).))) here.
-30.4

----------
procedureText: folding enthalpy; higher = less favourable; fluorescence melt of hairpins on a sequencing array, two-state fit
testSettings: sodium 0.088 M
Listed here: items and their measured folding enthalpy.
Unit kJ/mol implied. Number only.

Example cases with answers are listed next.
>  <chainSequence>
GAGTAACGAAAGTTTCTC (((.(((....))).)))

>  <folding enthalpy [kJ/mol]>
-126

$$$$
>  <chainSequence>
GATAGCGAAAGCTGATC ((((((....))).)))

>  <folding enthalpy [kJ/mol]>
-55.3

$$$$
>  <chainSequence>
GCACCGCGAAAGCGTCGC ((..(((....)))..))

>  <folding enthalpy [kJ/mol]>
-53.8

$$$$

State, in one line, measured folding enthalpy of GCGAGTACGAAAGTACGC (((..(((....))))))
-50.2

----------
procedureText: melting temperature; fluorescence melt of hairpins on a sequencing array, two-state fit, raised by 9.35 °C to match UV melts
testSettings: sodium 0.088 M
readoutKind: Tm (°C)
Give the number; °C is assumed, so skip it.

Known Tm results, listed for orientation:
>  <chainSequence>
GTTCGGCGAAAGCCCAAC (((.(((....))).)))

>  <Tm [°C]>
37.1

$$$$
>  <chainSequence>
GATCCCCTCGGGATC ((((((...))))))

>  <Tm [°C]>
61.4

$$$$

// next item, Tm requested
Give reported Tm value for GGTGTTGGAAACAACACC (((((((....)))))))
66.5

----------
procedureText: melting temperature; fluorescence melt of hairpins on a sequencing array, two-state fit, raised by 9.35 °C to match UV melts
testSettings: sodium 0.088 M
readoutKind: Tm (°C)
Write down the numeric answer in °C and omit the unit.

Example sequences with recorded Tm:
>  <chainSequence>
GCGGGGCGAAAGCCTGGC ((..(((....)))..))

>  <Tm [°C]>
57.8

$$$$
>  <chainSequence>
TTGTAGAAATACAA (((((....)))))

>  <Tm [°C]>
24.9

$$$$
>  <chainSequence>
GCGAGTTCTCGC ((((....))))

>  <Tm [°C]>
56.2

$$$$

Quote Tm reported for GACCAGGGAAACCCGGTC ((((.((....)).)))) please.
50.1

Tell me measured Tm for GCACGCGGAAACGCGCAC (..((((....))))..) please.
31.1

Supply recorded Tm for GTCAGTACGAAAGTAGAC (((..(((....)))))) here.
31
